Target: T1, human CD81 mutant V169A (human, UniProt P60033 1-236, limits assumed)
T1 construct: as m30; not shown: C-terminal V5 and 6xHis tags
T1 sequence: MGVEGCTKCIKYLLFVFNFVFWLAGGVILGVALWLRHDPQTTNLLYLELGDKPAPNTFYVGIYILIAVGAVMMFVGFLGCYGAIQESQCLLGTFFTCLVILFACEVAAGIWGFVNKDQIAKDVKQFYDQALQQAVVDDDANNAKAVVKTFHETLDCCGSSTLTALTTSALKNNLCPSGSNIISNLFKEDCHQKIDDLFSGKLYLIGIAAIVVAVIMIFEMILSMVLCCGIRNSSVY
Assay: ELISA
Measured relative binding affinity, listed per entry.

{"columns": ["binder", "assay-endpoint", "value-measured"],
 "data": [
  ["003-A10 (antibody, human IgG4 S228P, lambda, V domains shown, IgG4 S228P) VH: EVQLLESGGGLVQPGGSLRLSCAASGFTFSSNYMSWVRQAPGKGLEWVSYISSSSTYTDYADSVKGRFTISRDNSKNTLYLQMNSLRAEDTAVYYCARYSYGRDTFDYWGQGTLVTVSS VL: QSVLTQPFSASGTPGQRVTISCTGSTSNIGAGYDTHWYQQLPGTAPKLLIYGNSNRPSGVPDRFSGSKSGTSASLAISGLRSEDEADYYCQSYDTNLSVWVFGGGTKLTVLG", "relative binding affinity", "< 20%"],
  ["002-D10 (antibody, human IgG4 S228P, lambda, V domains shown, IgG4 S228P) VH: EVQLLESGGGLVQPGGSLRLSCAASGFTFSSNYMSWVRQAPGKGPEWVSYISSSSTYTDYADSVKGRFTISRDNSKNTLYLQMNSLRAEDTAVYYCARYSYGRDNFDYWGQGTLVTVSS VL: QSVLTQPSSASGTPGQRVTISCTGSTSNIGAGYDTHWYQQLPGTAPKLLIYGNSNRPSGVPDRFSGSKSGTSASLAVSGLRSEDEAEYYCQSYDTNLSGWVFGGGTKLTVLG", "relative binding affinity", "< 20%"]
]}

Would you kindly look at the next entry?
[ask] Using the record for 002-H03 (antibody, human IgG4 S228P, lambda, V domains shown, IgG4 S228P) VH: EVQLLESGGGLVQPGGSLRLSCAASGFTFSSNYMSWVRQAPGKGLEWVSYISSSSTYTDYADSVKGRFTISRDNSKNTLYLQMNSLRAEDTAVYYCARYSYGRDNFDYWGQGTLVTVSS VL: QSVLTQPSSASGTPGQRVTISCTGSTSNIGAGYDTHWYQQLPGTAPKPLIYGNSNRPSGVPDRFSGSKSGTSASLAISGLRSEDEADYYCQSYDTNLSAWVFGGGTKLTVLG , report its relative binding affinity.
[reply] < 20%
